Test system: UACC-62 melanoma
Assay: NCI-60 one-dose screen, 48 h
Conditions: 10 µM unless noted
The panel holds about 83,000 compounds, 20% with a hit somewhere; the sample as a whole holds those more often. Active and inactive are the calls of the source. Rule for the calls: active = growth percent below 10; inactive = the rest.
Classes used: active, inactive

- COMPOUND: "CS(=O)(=O)c1ccc(/C(=N/NC(N)=S)c2ccc(F)cc2)cc1"
  ASSIGNED_LABEL: "inactive"
- COMPOUND: "COc1ccc(C2=NN(C=O)C(c3ccc(Oc4nc5c(c(=O)n(C)c(=O)n5C)n4C)c(OC)c3)C2)cc1 (configuration not stated)"
  ASSIGNED_LABEL: "inactive"
- COMPOUND: "C=CC(=O)Nc1ccc2ncnc(Nc3cccc(NS(=O)(=O)CCC)c3Cl)c2c1"
  ASSIGNED_LABEL: "active"
- COMPOUND: "C=C1C(=O)O[C@H]2[C@H]1CC/C(COC(=O)NCc1ccc(Cn3c(=O)sn(CCCC)c3=O)cc1)=C\\CC[C@@]1(C)O[C@@H]21"
  ASSIGNED_LABEL: "inactive"
- COMPOUND: "COc1ccccc1NC(=O)n1c(=O)cc(C)c2ccc(O)cc21"
  ASSIGNED_LABEL: "inactive"
- COMPOUND: "COc1ccc(S(=O)(=O)Oc2ccc(-c3sc4cc(OS(=O)(=O)c5ccc(OC)cc5)ccc4c3C(=O)c3ccc(OCCN4CCCCC4)cc3)cc2)cc1"
  ASSIGNED_LABEL: "inactive"
- COMPOUND: "CCCCCCCCNc1ncnc2c1ncn2Cc1nnc2c3ccccc3c(Cl)nn12"
  ASSIGNED_LABEL: "inactive"
- COMPOUND: "COc1cc2c(cc1OC)CC[N+](CCC[N+](C)(C)C)=C2"
  ASSIGNED_LABEL: "inactive"
- COMPOUND: "O=C(COc1ccc(/C=C2\\Oc3ccccc3C2=O)cc1)Nc1nccs1"
  ASSIGNED_LABEL: "inactive"
- COMPOUND: "O=c1ccc2nc(-c3ccccc3)nn(-c3ccccn3)c-2c1"
  ASSIGNED_LABEL: "inactive"
- COMPOUND: "CNC(=O)c1cc(Oc2cccc3nc(NC(=O)Nc4ccc(F)cc4F)ccc23)ccn1"
  ASSIGNED_LABEL: "inactive"
- COMPOUND: "O=C(Nc1ncc(Cc2ccccc2Cl)s1)c1ccc2c(c1)OCCO2"
  ASSIGNED_LABEL: "inactive"

* * *

System: KM12 colon
Experiment: NCI-60 one-dose screen, 48 h
Conditions: 10 µM unless noted
Compounds without any hit were thinned out: in the full panel of roughly 83,000, 20% have a hit. The source made the active and inactive calls. Rule for the calls: active = growth percent below 10; inactive = the rest.
Classes used: T (active), F (inactive)

- COMPOUND: "Cc1ccc(C(=O)Nc2ccc(CN3CCN(C)CC3)c(C(F)(F)F)c2)cc1C#Cc1cnc(N)c2ccccc12"
  ASSIGNED_LABEL: "T"
- COMPOUND: "O=C(NC1CCCCCC1)c1ccc2c(=O)n3c(nc2c1)CCCCC3"
  ASSIGNED_LABEL: "F"
- COMPOUND: "CCOC(=O)CC1CSC(N/N=C(/C)c2cccc(C(F)(F)F)c2)=N1 (stereo not given)"
  ASSIGNED_LABEL: "F"
- COMPOUND: "c1ccc(-c2cn3nc(-c4c[nH]c5ccccc45)sc3n2)cc1"
  ASSIGNED_LABEL: "F"
- COMPOUND: "CO[C@]12C=C/C(=C(/C(=O)OCc3cccnc3)C(=O)CCCCCCCC[C@]3(OC)C=C/C(=C(/C(=O)OCc4cccnc4)C(=O)CCCCCCCC1)O3)O2"
  ASSIGNED_LABEL: "T"
- COMPOUND: "Cc1ccc(S(=O)(=O)N(CCC(=O)O)c2ccccc2)cc1"
  ASSIGNED_LABEL: "F"
- COMPOUND: "N#C/C(=C/C=C/c1ccccc1)S(=O)c1ccccc1 (stereo not given)"
  ASSIGNED_LABEL: "T"
- COMPOUND: "C#CCOc1cc(/C=N/Nc2nc(-c3ccc(OC)cc3)cs2)ccc1O"
  ASSIGNED_LABEL: "F"
- COMPOUND: "O=C(OCC(O)C(=O)NC12CC3CC(CC(C3)C1)C2)c1cccc(Br)c1 (stereo not given)"
  ASSIGNED_LABEL: "F"
- COMPOUND: "CN1CCN(Cc2ccc(NC(=O)c3cncc(C#Cc4cnc(N)c5ncccc45)c3)cc2Cl)CC1"
  ASSIGNED_LABEL: "F"
- COMPOUND: "CC(=O)OCC(=O)O[C@@H]1C[C@]2(C(C)C)O[C@@]1(C)[C@@H]1CC[C@@H](C)[C@H]1[C@@H]2OC(=O)/C=C/c1ccccc1"
  ASSIGNED_LABEL: "F"
- COMPOUND: "Nc1ncc(-c2ccc3ncnc(N4CCc5ccc(Cl)cc54)c3c2)cn1"
  ASSIGNED_LABEL: "T"
- COMPOUND: "CCOC(=O)c1cc(C(=O)c2cc(OC)cc(OC)c2)n2ncccc12"
  ASSIGNED_LABEL: "F"
- COMPOUND: "NC(=O)[C@@H]1Cc2ccccc2CN1C(=O)c1ccc2c(c1)Cc1ccccc1-2"
  ASSIGNED_LABEL: "F"
- COMPOUND: "COc1cc2c(c(OC)c1OC)CCC(c1cccc(C(=O)Nc3ccccc3Br)c1)O2 (stereo not given)"
  ASSIGNED_LABEL: "F"
- COMPOUND: "NS(=O)(=O)Oc1cccc(-c2nc3sccn3c2-c2ccccc2)c1"
  ASSIGNED_LABEL: "F"
- COMPOUND: "CCN(CC)CCCNC(=O)c1c2c(n3ccccc13)C(=O)c1ncccc1C2=O"
  ASSIGNED_LABEL: "T"
- COMPOUND: "CCCCCCCCCCCCCCCCCCOc1ccccc1CC(=O)OCC[N+]1(C)CCCCC1"
  ASSIGNED_LABEL: "F"
- COMPOUND: "COc1cc2nc3cc([N+](=O)[O-])ccc3c(NCCCNCCO)c2cc1OC"
  ASSIGNED_LABEL: "T"
- COMPOUND: "C=C(c1ccc(C(=O)O)c(F)c1)c1cc2c(cc1C)C(C)(C)C=CC2(C)C"
  ASSIGNED_LABEL: "F"
